# tested-target: T1, plasma-derived human activated protein C (APC) (UniProt P04070 43-461)
# T1 chain: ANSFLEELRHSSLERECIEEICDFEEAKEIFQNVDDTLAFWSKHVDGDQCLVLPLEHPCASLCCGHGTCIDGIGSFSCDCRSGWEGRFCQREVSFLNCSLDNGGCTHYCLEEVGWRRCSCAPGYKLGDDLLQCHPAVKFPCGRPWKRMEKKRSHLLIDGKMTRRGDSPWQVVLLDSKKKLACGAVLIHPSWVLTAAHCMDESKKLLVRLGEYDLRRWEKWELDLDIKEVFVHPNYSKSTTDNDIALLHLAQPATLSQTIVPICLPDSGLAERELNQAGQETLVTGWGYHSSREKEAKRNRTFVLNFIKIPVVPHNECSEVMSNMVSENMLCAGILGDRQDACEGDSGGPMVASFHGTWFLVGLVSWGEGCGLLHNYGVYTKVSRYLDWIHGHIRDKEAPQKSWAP
# assay-notes: SPR
Can you tell me pKd for the items I'm about to list?
pKd is a log-scale quantity: -log10 of the concentration expressed in molar.

Give recorded pKd. TPP-24847 (antibody, V domains shown) VL: DIVLTQSPASLAVSPGQRATITCKASQSVSSFGATFMHWYLQKPGQSPQLLIYLASNLESGVPARFSGSGSGTDFTLTINPVEADDTANYYCQQNNEDPYTFGQGTKLEIK
7.07

Give recorded pKd. TPP-24845 (antibody, V domains shown) VL: DIVLTQSPASLAVSPGQRATITCKASQSVSSFGATFMHWYQQKPGQPPKLLIYLASNRASGVPDRFSGSGSGTDFTLKISRVEAEDVGVYYCQQNNEDPYTFGQGTKLEIK
7.27

Give recorded pKd. TPP-24829 (antibody, V domains shown) VL: DIVLTQSPASLAVSPGQRATITCKASESVDSFGATFMHWYQQKPGQPPKLLIYLASNRASGVPDRFSGSGSGTDFTLKISRVEAEDVGVYYCQQNNEDPYTFGQGTKLEIK
7.50

Give recorded pKd. TPP-24875 (antibody, V domains shown) VL: DIVMTQSPLSLPVTPGEPASISCRSSQSVSSFGATFMHWYQQKPGQPPKLLIYLASNRASGVPDRFSGSGSGTDFTLTINPVEADDTANYYCQQNNEDPYTFGQGTKLEIK
7.32

Give recorded pKd. TPP-24909 (antibody, V domains shown) VL: EIVLTQSPGTLSLSPGERATLSCRASQSVSSFGATFMHWYQQKPGQPPKLLIYLASNRASGVPDRFSGSGSGTDFTLKISRVEAEDVGVYYCQQNNEDPYTFGQGTKLEIK
7.34

Give recorded pKd. TPP-24827 (antibody, V domains shown) VL: DIVLTQSPASLAVSPGQRATITCKASESVDSFGATFMHWYQQKPGQPPKLLIYLASNRASGVPDRFSGSGSGTDFTLTINPVEADDTANYYCQQNNEDPYTFGQGTKLEIK
7.50

Give recorded pKd. TPP-24861 (antibody, V domains shown) VL: DIVMTQSPLSLPVTPGEPASISCRSSESVDSFGATFMHWYQQKPGQPPKLLIYLASNRASGVPDRFSGSGSGTDFTLKISRVEAEDVGVYYCQQNNEDPYTFGQGTKLEIK
7.62

Give recorded pKd. TPP-24893 (antibody, V domains shown) VL: EIVLTQSPGTLSLSPGERATLSCRASESVDSFGATFMHWYQQKPGQPPKLLIYLASNRASGVPDRFSGSGSGTDFTLKISRVEAEDVGVYYCQQNNEDPYTFGQGTKLEIK
7.54

Give recorded pKd. TPP-24911 (antibody, V domains shown) VL: EIVLTQSPGTLSLSPGERATLSCRASQSVSSFGATFMHWYLQKPGQSPQLLIYLASNLESGVPARFSGSGSGTDFTLTINPVEADDTANYYCQQNNEDPYTFGQGTKLEIK
7.36

Give recorded pKd. TPP-24727 (antibody, V domains shown) VH: EVQLVESGGGLVQPGGSLRLSCAASGFTFSNYYLNWVRQAPGKGLEWVGDIRLKSNNYEKHYAESVKGRFTISRDDSKNSLYLQMNSLKTEDTAVYYCAREGDYFDYWGQGTLVTVSS VL: DIVLTQSPASLAVSPGQRATITCKASESVDSFGATFMHWYQQKPGQPPKLLIYLASNLESGVPARFSGSGSGTDFTLTINPVEADDTANYYCQQNNEDPYTFGQGTKLEIKR
7.35

Give recorded pKd. TPP-24913 (antibody, V domains shown) VL: EIVLTQSPGTLSLSPGERATLSCRASQSVSSFGATFMHWYLQKPGQSPQLLIYLASNLESGVPARFSGSGSGTDFTLKISRVEAEDVGVYYCQQNNEDPYTFGQGTKLEIK
7.07

Give recorded pKd. TPP-24869 (antibody, V domains shown) VL: DIVMTQSPLSLPVTPGEPASISCRSSESVDSFGATFMHWYLQKPGQSPQLLIYLASNRASGVPDRFSGSGSGTDFTLKISRVEAEDVGVYYCQQNNEDPYTFGQGTKLEIK
7.62

Give recorded pKd. TPP-24833 (antibody, V domains shown) VL: DIVLTQSPASLAVSPGQRATITCKASESVDSFGATFMHWYLQKPGQSPQLLIYLASNLESGVPARFSGSGSGTDFTLKISRVEAEDVGVYYCQQNNEDPYTFGQGTKLEIK
7.31

Give recorded pKd. TPP-24901 (antibody, V domains shown) VL: EIVLTQSPGTLSLSPGERATLSCRASESVDSFGATFMHWYLQKPGQSPQLLIYLASNRASGVPDRFSGSGSGTDFTLKISRVEAEDVGVYYCQQNNEDPYTFGQGTKLEIK
7.57

Give recorded pKd. TPP-24853 (antibody, V domains shown) VL: DIVLTQSPASLAVSPGQRATITCKASQSVSSFGATFMHWYLQKPGQSPQLLIYLASNRASGVPDRFSGSGSGTDFTLKISRVEAEDVGVYYCQQNNEDPYTFGQGTKLEIK
7.29
